Test system: transactivating tegument protein VP16 (Human herpesvirus 1), Gal4-VP16 luciferase reporter
Test: VP16 transactivation inhibitors, counter-screen for SRC3 inhibitor project, cell-based, luminescence, high throughput (AID 588794)
Conditions: mammalian cells, VP16-driven luciferase reporter luminescence; at 3.6 µM; active compounds read high
measured quantity: inhibition (%)
Just the number please, in %, no unit attached.

Sample answers from the record:
{"compound": "O=c1[nH]c2ccccc2n1C1CCN(C(CCc2ccccc2)c2nnnn2-c2ccc3c(c2)OCCO3)CC1 (centres undefined)", "value unit": "%", "experimental value": 48.9}
{"compound": "COC1CC2C=C(C)C=CC=CC(=O)NC(c3ccccc3)CC=CCCC(O)CC(=O)C2=C1O (centres undefined)", "value unit": "%", "experimental value": 84}
{"compound": "CC(C)[C@H]1C(=O)O[C@H](C(C)C)C(=O)N(C)[C@@H](C(C)C)C(=O)O[C@H](C(C)C)C(=O)N(C)[C@@H](C(C)C)C(=O)O[C@H](C(C)C)C(=O)N1C", "value unit": "%", "experimental value": 86.1}

Now take the following compound into account.
Ask: Bench note: what inhibition did `CN1CCN(c2ncnc3ccc(Br)cc23)CC1` show?
Reply: 37.6

###

Assay: VP16 transactivation reporter inhibitors, counter-screen for LRH-1 inverse agonist project, cell-based, luminescence, high throughput (AID 651615)
Details: Gal4-VP16 luciferase reporter cells, at 3.6 µM, active compounds read high
Criterion: inhibition meeting or surpassing 70%. Met: MET. Not met: NOT MET.

Ask: Please tell me: is the compound `CCOC(=O)[C@]12Cc3cc(OC)ccc3[C@H]1N(C1CCCCC1)C(=O)c1ccccc12` at or over 70% in terms of inhibition?
Reply: MET

###

Tested on: transactivating tegument protein VP16 (Human herpesvirus 1), Gal4-VP16 luciferase reporter
Experiment: VP16 transactivation inhibitors, counter-screen for SRC3 inhibitor project, cell-based, luminescence, high throughput (AID 588794)
Conditions: mammalian cells, VP16-driven luciferase reporter luminescence; at 3.6 µM; active compounds read high
Mark condition not met for inhibition values under 60%, and condition met for everything at or above.

Look over these answered cases.
{"compound": "CC(=O)OCC12CC(OC(=O)CC(C)C)C(C)=CC1OC1C(O)C(OC(C)=O)C2(C)C12CO2 (centres undefined)", "class": "condition met"}
{"compound": "C[C@H]1CCC/C=C/C2C[C@H](O)CC2[C@H](O)/C=C/C(=O)O1 (some centres undefined)", "class": "condition met"}

Ask: Has COc1ccc(-n2nnnc2C(c2cc3ccccc3o2)N2CCC(n3c(=O)[nH]c4ccccc43)CC2)cc1 (centres undefined) a recorded inhibition greater than or equal to 60%?
Reply: condition not met

Ask: inhibition >= 60% for `C1=NCCc2c1[nH]c1ccccc21` ?
Reply: condition not met

Ask: Decide: is the reported value of inhibition for CC(C)c1oc(=O)cc2c1[C@@H](O)[C@H]1OC(=O)[C@@]3(C)CC[C@@H](O)[C@@]2(C)C13 (some centres undefined) equal to or greater than 60%?
Reply: condition not met

Ask: Does `COc1ccc(-c2cc(-c3ccccc3)[n+](C)c(-c3ccccc3)c2)cc1` have a reported inhibition of at least 60%?
Reply: condition not met

Ask: Is inhibition for `CNC(=O)c1cccn(Cc2cccc(C(F)(F)F)c2)c1=O` at or above 60%?
Reply: condition not met

Ask: Could you verify whether the entry CC(C)(O)/C=C/C(=O)C(C)(O)C1C(O)CC2(C)C3CC=C4C(C=C(O)C(=O)C4(C)C)C3(C)C(=O)CC12C (centres undefined) shows inhibition of no less than 60%?
Reply: condition met

Ask: Quick check, inhibition >= 60%? `N=c1c2c(n(Cc3ccc(Cl)cc3Cl)c3c1CCC3)CCCC2`
Reply: condition met

Source listed as PubChem BioAssay.
